- assay_info: chemical genetic growth profiling, strain panel (AID 1159580);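 note: tested at 20 µM; growth read once vehicle control cultures reached saturation at 30 °C; 1 = growth at the plate median or of vehicle wells; lower values mean less growth of the strain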
- assay_context: S. cerevisiae deletion strains, growth OD, locus YDR388W, hits give low values
In all, about 5,500 compounds went through this assay and about 2,000 (36%) were called active. Not shown: some 18% with an inconclusive outcome. Some of the results follow.
This listing pairs compounds with measured normalized growth.
Respond using a number only.

Observe how each entry below is paired with its result.
compound="CCS(=O)CCSP(=O)(OC)OC (configuration not stated)" value=1.01
compound=COc1cc2c(cc1OC)C(=O)OC2 value=1.01
compound="COc1cc2c(cc1OC)C1C(=O)c3c(O)cc4c(c3OC1CO2)C=CC(C)(C)O4 (configuration not stated)" value=1
compound="OCC(O)C(O)C(O)CO (configuration not stated)" value=0.995
compound="c1cncc(C2CCCCN2)c1 (configuration not stated)" value=0.996

Tell me the measured normalized growth of CC[C@H]1OC(=O)[C@H](C)[C@@H](O[C@H]2C[C@@](C)(OC)[C@@H](O)[C@H](C)O2)[C@H](C)[C@@H](O[C@@H]2O[C@H](C)C[C@H](N(C)C)[C@H]2O)[C@](C)(O)C[C@@H](C)CN(C)[C@H](C)[C@@H](O)[C@]1(C)O , please.
0.978

Query CCOC(=O)CCC(=O)O[C@H]1[C@H](O[C@@H]2[C@@H](C)[C@H](O[C@H]3C[C@@](C)(OC)[C@@H](O)[C@H](C)O3)[C@@H](C)C(=O)O[C@H](CC)[C@@](C)(O)[C@H](O)[C@@H](C)C(=O)[C@H](C)C[C@@]2(C)O)O[C@H](C)C[C@@H]1N(C)C next
0.984

Another compound to check: C[N+](C)(C)CCCCCC[N+](C)(C)C
0.982

Now the same for CC(=O)OCC[N+](C)(C)C
1.02

Another compound to check: OCCN1C[C@@H](O)[C@@H](O)C(O)C1CO (some centres not stated)
1

Same question, C[N+](C)(C)CCOC(N)=O this time
0.984

Next compound: CC(C)(OC(=O)c1ccccc1)[C@@H]1Cc2cc3ccc(=O)oc3cc2O1
0.994
